- Target System: MAP2K3 (human)
- Test: KINOMEscan competition binding
- Condition Summary: compound 10.0 µM
Property Label: kinase still bound, per cent of control (%)

1) CCOc1cc(N2CCC(O)CC2)ccc1Nc1ncc2c(n1)N(C)c1ccccc1C(=O)N2C
100
2) CCN1CCN(Cc2ccc(NC(=O)c3ccc(C)c(/C=C/c4cnc5[nH]ccc5c4OC)c3)cc2C(F)(F)F)CC1
68
3) CNC(=O)Nc1ccc(-c2nc(N3CC4CCC(C3)O4)c3cnn(C4CCC5(CC4)OCCO5)c3n2)cc1
89
4) Cc1cn(-c2cc(C(=O)Nc3ccc(C)c(NC(=O)c4ccno4)c3)cc(C(F)(F)F)c2)cn1
100
5) COc1cc2c(Nc3ccc(NC(=O)c4ccccc4)cc3)ncnc2cc1OCCCN1CCOCC1
100
6) CCc1nc(-c2cccc(C)c2)c(-c2ccnc(NC(=O)c3ccccc3)c2)s1
96
7) CCCS(=O)(=O)Nc1ccc(F)c(C(=O)c2c[nH]c3ncc(Cl)cc23)c1F
53
8) N#C/C(=C1/Nc2ccccc2S1)c1ccnc(NCCc2cccnc2)n1
33
9) COc1cc2ncnc(Nc3cccc(Cl)c3)c2cc1OC
57
10) CC(=O)c1c(C)c2cnc(Nc3ccc(N4CCNCC4)cn3)nc2n(C2CCCC2)c1=O
19
11) N#Cc1cc(-c2ccnc(Nc3ccc(-n4cnc(-c5cccnc5)n4)cc3)n2)cc(N2CCOCC2)c1
18
12) C=CC(=O)Nc1ccc(C(=O)c2sc(Nc3ccc(N4CCN(C)CC4)cc3OC)nc2N)cc1
69
13) COc1cc(N2CCC(C(N)=O)CC2)ccc1Nc1nc(N)c(Cl)c(Nc2ccccc2S(=O)(=O)C(C)C)n1
23
14) COc1cc(C)c(Sc2cnc(NC(=O)c3ccc(CNC(C)C(C)C)cc3)s2)cc1C(=O)N1CCN(C(C)=O)CC1 (configuration not stated)
100
15) COc1ccc(N(C(=O)Oc2cc(C(=O)Nc3cccc(C(F)(F)F)c3)ccc2C)c2ccnc(Nc3ccc(N4CCN(C)CC4)cc3)n2)c(OC)c1
100
16) CC1=C(C(=O)Nc2cc3cn[nH]c3cc2F)C(c2ccc(C(F)(F)F)cc2)CC(=O)N1 (configuration not stated)
67
17) O=c1[nH]c2ccccc2n1C1CCN(Cc2ccc(-c3nc4cc5[nH]cnc5cc4nc3-c3ccccc3)cc2)CC1
100

* * *

- Target System: FLT4 (human) (UniProt P35916)
- Sequence (P35916 whole entry, looked up): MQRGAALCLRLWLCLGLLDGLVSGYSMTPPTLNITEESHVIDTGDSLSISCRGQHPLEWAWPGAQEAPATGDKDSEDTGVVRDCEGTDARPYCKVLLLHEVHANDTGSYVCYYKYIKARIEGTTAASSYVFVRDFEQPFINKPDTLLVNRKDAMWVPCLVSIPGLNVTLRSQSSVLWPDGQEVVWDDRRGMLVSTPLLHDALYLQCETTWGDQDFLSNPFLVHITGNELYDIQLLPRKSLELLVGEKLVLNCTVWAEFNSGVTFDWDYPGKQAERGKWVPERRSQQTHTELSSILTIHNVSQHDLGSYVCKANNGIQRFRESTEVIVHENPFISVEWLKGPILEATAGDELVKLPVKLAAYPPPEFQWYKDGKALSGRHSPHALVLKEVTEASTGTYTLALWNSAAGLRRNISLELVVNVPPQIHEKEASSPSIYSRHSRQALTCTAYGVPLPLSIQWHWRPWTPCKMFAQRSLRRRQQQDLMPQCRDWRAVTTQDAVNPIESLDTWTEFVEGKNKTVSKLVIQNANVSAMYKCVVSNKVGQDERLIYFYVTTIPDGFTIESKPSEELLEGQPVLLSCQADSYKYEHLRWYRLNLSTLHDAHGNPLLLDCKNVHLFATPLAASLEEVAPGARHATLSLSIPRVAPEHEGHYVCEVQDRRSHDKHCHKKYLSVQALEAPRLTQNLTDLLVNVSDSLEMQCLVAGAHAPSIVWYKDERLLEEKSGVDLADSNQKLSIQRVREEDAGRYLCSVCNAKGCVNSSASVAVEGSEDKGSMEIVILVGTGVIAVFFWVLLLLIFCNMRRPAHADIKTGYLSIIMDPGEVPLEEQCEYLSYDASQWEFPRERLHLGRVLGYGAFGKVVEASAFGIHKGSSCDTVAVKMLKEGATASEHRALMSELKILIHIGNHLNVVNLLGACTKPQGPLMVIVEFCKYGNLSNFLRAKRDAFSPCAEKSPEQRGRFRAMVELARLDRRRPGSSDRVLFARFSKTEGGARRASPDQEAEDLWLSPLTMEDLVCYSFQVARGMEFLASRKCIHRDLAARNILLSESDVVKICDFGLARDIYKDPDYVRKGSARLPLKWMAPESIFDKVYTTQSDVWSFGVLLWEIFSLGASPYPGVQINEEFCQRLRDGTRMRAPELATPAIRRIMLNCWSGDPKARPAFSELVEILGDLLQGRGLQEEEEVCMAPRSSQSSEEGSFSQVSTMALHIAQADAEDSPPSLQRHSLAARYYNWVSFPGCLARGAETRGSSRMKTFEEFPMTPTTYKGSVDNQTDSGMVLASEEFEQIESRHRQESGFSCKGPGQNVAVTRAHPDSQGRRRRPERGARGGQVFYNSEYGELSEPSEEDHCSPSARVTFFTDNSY
- Test: KINOMEscan competition binding
- Condition Summary: compound 10.0 µM
Property Label: kinase still bound, per cent of control (%)

1. CCN1CCN(Cc2ccc(NC(=O)c3ccc(C)c(/C=C/c4cnc5[nH]ccc5c4OC)c3)cc2C(F)(F)F)CC1
0.2
2. O=c1[nH]c2ccccc2n1C1CCN(Cc2ccc(-c3nc4cc5[nH]cnc5cc4nc3-c3ccccc3)cc2)CC1
100
3. CCN(CCO)CCCOc1ccc2c(Nc3cc(CC(=O)Nc4cccc(F)c4)[nH]n3)ncnc2c1
38
4. CCCS(=O)(=O)Nc1ccc(F)c(C(=O)c2c[nH]c3ncc(Cl)cc23)c1F
61
5. COc1cc2ncnc(Nc3cccc(Cl)c3)c2cc1OC
79
6. COc1ccc(N(C(=O)Oc2cc(C(=O)Nc3cccc(C(F)(F)F)c3)ccc2C)c2ccnc(Nc3ccc(N4CCN(C)CC4)cc3)n2)c(OC)c1
2
7. CC1=C(C(=O)Nc2cc3cn[nH]c3cc2F)C(c2ccc(C(F)(F)F)cc2)CC(=O)N1 (configuration not stated)
94
8. CCOc1cc(N2CCC(O)CC2)ccc1Nc1ncc2c(n1)N(C)c1ccccc1C(=O)N2C
100
9. COc1cc(N2CCC(C(N)=O)CC2)ccc1Nc1nc(N)c(Cl)c(Nc2ccccc2S(=O)(=O)C(C)C)n1
100
10. N#Cc1cc(-c2ccnc(Nc3ccc(-n4cnc(-c5cccnc5)n4)cc3)n2)cc(N2CCOCC2)c1
84
11. COc1cc(C)c(Sc2cnc(NC(=O)c3ccc(CNC(C)C(C)C)cc3)s2)cc1C(=O)N1CCN(C(C)=O)CC1 (configuration not stated)
100
12. Cc1cn(-c2cc(C(=O)Nc3ccc(C)c(NC(=O)c4ccno4)c3)cc(C(F)(F)F)c2)cn1
100
13. CCc1nc(-c2cccc(C)c2)c(-c2ccnc(NC(=O)c3ccccc3)c2)s1
27
14. COc1cc2c(Nc3ccc(NC(=O)c4ccccc4)cc3)ncnc2cc1OCCCN1CCOCC1
83
15. CNC(=O)Nc1ccc(-c2nc(N3CC4CCC(C3)O4)c3cnn(C4CCC5(CC4)OCCO5)c3n2)cc1
88
16. N#C/C(=C1/Nc2ccccc2S1)c1ccnc(NCCc2cccnc2)n1
100
17. C=CC(=O)Nc1ccc(C(=O)c2sc(Nc3ccc(N4CCN(C)CC4)cc3OC)nc2N)cc1
100

* * *

- Target System: ACVR1B (human)
- Test: KINOMEscan competition binding
- Condition Summary: compound 10.0 µM
Property Label: kinase still bound, per cent of control (%)

1) COc1cc2c(Nc3ccc(NC(=O)c4ccccc4)cc3)ncnc2cc1OCCCN1CCOCC1
100
2) O=c1[nH]c2ccccc2n1C1CCN(Cc2ccc(-c3nc4cc5[nH]cnc5cc4nc3-c3ccccc3)cc2)CC1
100
3) COc1ccc(N(C(=O)Oc2cc(C(=O)Nc3cccc(C(F)(F)F)c3)ccc2C)c2ccnc(Nc3ccc(N4CCN(C)CC4)cc3)n2)c(OC)c1
100
4) COc1cc2ncnc(Nc3cccc(Cl)c3)c2cc1OC
100
5) C=CC(=O)Nc1ccc(C(=O)c2sc(Nc3ccc(N4CCN(C)CC4)cc3OC)nc2N)cc1
100
6) COc1cc(N2CCC(C(N)=O)CC2)ccc1Nc1nc(N)c(Cl)c(Nc2ccccc2S(=O)(=O)C(C)C)n1
100
7) CCN1CCN(Cc2ccc(NC(=O)c3ccc(C)c(/C=C/c4cnc5[nH]ccc5c4OC)c3)cc2C(F)(F)F)CC1
98
8) CC(=O)c1c(C)c2cnc(Nc3ccc(N4CCNCC4)cn3)nc2n(C2CCCC2)c1=O
96

* * *

- Target System: UniProt O95835
- Sequence (O95835 whole entry, looked up): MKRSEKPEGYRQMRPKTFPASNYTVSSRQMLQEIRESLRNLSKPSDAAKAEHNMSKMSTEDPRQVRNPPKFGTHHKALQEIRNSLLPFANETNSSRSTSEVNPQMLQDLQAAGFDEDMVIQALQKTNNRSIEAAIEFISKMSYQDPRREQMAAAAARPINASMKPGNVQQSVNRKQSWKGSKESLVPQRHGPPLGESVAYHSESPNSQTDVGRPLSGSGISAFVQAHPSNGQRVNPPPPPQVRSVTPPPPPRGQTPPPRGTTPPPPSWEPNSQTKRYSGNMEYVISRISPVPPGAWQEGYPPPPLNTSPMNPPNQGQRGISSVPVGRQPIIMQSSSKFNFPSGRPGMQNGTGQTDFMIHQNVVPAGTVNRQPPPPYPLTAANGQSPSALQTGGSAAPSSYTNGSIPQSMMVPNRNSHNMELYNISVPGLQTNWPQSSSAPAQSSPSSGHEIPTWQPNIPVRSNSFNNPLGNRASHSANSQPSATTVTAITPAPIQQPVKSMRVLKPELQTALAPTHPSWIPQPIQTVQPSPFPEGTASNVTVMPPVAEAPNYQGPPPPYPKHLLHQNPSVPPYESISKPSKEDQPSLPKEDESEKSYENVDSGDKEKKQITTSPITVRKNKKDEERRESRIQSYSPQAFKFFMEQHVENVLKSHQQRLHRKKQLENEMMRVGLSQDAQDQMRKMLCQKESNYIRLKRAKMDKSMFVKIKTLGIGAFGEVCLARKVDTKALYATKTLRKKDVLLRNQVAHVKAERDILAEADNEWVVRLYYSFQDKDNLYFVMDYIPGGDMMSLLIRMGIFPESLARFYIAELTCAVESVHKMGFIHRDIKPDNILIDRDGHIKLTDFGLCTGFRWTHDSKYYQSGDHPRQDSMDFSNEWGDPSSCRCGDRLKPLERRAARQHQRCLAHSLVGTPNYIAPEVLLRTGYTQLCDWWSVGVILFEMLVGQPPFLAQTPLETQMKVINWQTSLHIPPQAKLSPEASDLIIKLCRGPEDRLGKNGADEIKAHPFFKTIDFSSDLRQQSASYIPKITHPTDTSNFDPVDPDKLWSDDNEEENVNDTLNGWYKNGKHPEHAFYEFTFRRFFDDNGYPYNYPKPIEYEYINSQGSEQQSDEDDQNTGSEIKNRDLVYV
- Test: KINOMEscan competition binding
- Condition Summary: compound 10.0 µM
// reported kinase still bound, per cent of control per item
Property Label: kinase still bound, per cent of control (%)

1) O=c1[nH]c2ccccc2n1C1CCN(Cc2ccc(-c3nc4cc5[nH]cnc5cc4nc3-c3ccccc3)cc2)CC1
93
2) CCN1CCN(Cc2ccc(NC(=O)c3ccc(C)c(/C=C/c4cnc5[nH]ccc5c4OC)c3)cc2C(F)(F)F)CC1
32
3) Cc1cn(-c2cc(C(=O)Nc3ccc(C)c(NC(=O)c4ccno4)c3)cc(C(F)(F)F)c2)cn1
100
4) N#Cc1cc(-c2ccnc(Nc3ccc(-n4cnc(-c5cccnc5)n4)cc3)n2)cc(N2CCOCC2)c1
100
5) COc1cc(N2CCC(C(N)=O)CC2)ccc1Nc1nc(N)c(Cl)c(Nc2ccccc2S(=O)(=O)C(C)C)n1
100
6) COc1cc2ncnc(Nc3cccc(Cl)c3)c2cc1OC
100
7) CC1=C(C(=O)Nc2cc3cn[nH]c3cc2F)C(c2ccc(C(F)(F)F)cc2)CC(=O)N1 (centres undefined)
60
8) N#C/C(=C1/Nc2ccccc2S1)c1ccnc(NCCc2cccnc2)n1
100
9) CCc1nc(-c2cccc(C)c2)c(-c2ccnc(NC(=O)c3ccccc3)c2)s1
100

* * *

- Target System: SRC (human) (UniProt P12931)
- Sequence (P12931 whole entry, looked up): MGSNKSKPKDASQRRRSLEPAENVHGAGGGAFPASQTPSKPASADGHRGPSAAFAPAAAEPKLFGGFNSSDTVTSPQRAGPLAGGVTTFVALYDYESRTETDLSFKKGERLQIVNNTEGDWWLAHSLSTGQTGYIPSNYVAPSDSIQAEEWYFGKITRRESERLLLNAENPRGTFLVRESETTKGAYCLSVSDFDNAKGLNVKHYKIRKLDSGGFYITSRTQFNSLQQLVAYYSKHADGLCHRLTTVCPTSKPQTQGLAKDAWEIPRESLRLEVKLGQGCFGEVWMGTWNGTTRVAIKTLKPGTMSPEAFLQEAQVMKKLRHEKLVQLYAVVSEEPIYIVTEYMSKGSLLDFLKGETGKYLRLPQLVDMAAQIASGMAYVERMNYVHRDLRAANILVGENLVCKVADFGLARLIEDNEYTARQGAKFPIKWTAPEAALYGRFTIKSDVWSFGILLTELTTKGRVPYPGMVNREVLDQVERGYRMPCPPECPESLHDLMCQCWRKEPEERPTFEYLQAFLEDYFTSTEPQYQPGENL
- Test: KINOMEscan competition binding
- Condition Summary: compound 10.0 µM
Property Label: kinase still bound, per cent of control (%)

1. COc1cc(C)c(Sc2cnc(NC(=O)c3ccc(CNC(C)C(C)C)cc3)s2)cc1C(=O)N1CCN(C(C)=O)CC1 (centres undefined)
1.2
2. COc1cc(N2CCC(C(N)=O)CC2)ccc1Nc1nc(N)c(Cl)c(Nc2ccccc2S(=O)(=O)C(C)C)n1
23
3. N#C/C(=C1/Nc2ccccc2S1)c1ccnc(NCCc2cccnc2)n1
100
4. CNC(=O)Nc1ccc(-c2nc(N3CC4CCC(C3)O4)c3cnn(C4CCC5(CC4)OCCO5)c3n2)cc1
75

* * *

- Target System: RIPK1 (human) (UniProt Q13546)
- Sequence (Q13546 whole entry, looked up): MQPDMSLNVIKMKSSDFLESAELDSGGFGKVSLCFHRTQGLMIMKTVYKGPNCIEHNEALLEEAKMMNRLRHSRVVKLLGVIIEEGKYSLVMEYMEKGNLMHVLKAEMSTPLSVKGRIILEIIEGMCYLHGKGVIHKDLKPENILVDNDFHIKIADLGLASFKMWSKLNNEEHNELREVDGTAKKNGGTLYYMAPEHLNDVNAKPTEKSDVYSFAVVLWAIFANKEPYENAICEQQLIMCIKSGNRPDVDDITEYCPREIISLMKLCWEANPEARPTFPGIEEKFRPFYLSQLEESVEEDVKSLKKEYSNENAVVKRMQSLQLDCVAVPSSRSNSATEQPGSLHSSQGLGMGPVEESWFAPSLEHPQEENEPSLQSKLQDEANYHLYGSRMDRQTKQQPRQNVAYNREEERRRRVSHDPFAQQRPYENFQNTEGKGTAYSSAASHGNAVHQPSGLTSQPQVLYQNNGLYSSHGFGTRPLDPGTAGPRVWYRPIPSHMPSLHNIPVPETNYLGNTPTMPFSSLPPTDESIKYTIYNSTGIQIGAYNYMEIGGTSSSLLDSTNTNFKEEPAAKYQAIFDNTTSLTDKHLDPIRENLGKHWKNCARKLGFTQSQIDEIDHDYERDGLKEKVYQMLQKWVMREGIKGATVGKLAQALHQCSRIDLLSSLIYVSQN
- Test: KINOMEscan competition binding
- Condition Summary: compound 10.0 µM
Recorded kinase still bound, per cent of control values for a group of molecules are listed next.
Property Label: kinase still bound, per cent of control

1) CNC(=O)Nc1ccc(-c2nc(N3CC4CCC(C3)O4)c3cnn(C4CCC5(CC4)OCCO5)c3n2)cc1
83%
2) COc1cc(N2CCC(C(N)=O)CC2)ccc1Nc1nc(N)c(Cl)c(Nc2ccccc2S(=O)(=O)C(C)C)n1
100%
3) COc1cc(C)c(Sc2cnc(NC(=O)c3ccc(CNC(C)C(C)C)cc3)s2)cc1C(=O)N1CCN(C(C)=O)CC1 (stereo not given)
100%
4) C=CC(=O)Nc1ccc(C(=O)c2sc(Nc3ccc(N4CCN(C)CC4)cc3OC)nc2N)cc1
100%
5) COc1cc2ncnc(Nc3cccc(Cl)c3)c2cc1OC
100%

Reference for the values: the kinase profiling compilation of Christmann-Franck et al. (2016)
